- Test system: MDA-MB-468 breast
- ASSAY_NOTES: NCI-60 one-dose screen, 48 h
- ASSAY_CONTEXT: 10 µM unless noted
Compounds without any hit were thinned out: in the full panel of roughly 83,000, 20% have a hit. Active and inactive are the calls of the source. The calls were made as follows: active = growth percent below 10; inactive = the rest.
Respond with a class label; see active, inactive

Task item: Would you mind telling me which call this test gave N#Cc1c(N)nc(NCCO)nc1-c1ccc(F)cc1 ?
Reply: inactive

Task item: Per the records of this test, what outcome belongs to CN(C[C@H]1Cc2c(cccc2N2CCN(c3ncccn3)CC2)CN1)[C@H]1CCCc2cccnc21 ?
Reply: inactive

---
Task item: Identify the outcome logged in this assay for the molecule shown: C#CC(=O)Nc1cccc(Nc2nc3c(c(NCc4ccccc4)n2)CCCC3)c1
Reply: active
